Can you tell me pIC50 for the items I'm about to list?
measured_target: D(2) dopamine receptor (Bos taurus)
Sequence (P20288 whole entry): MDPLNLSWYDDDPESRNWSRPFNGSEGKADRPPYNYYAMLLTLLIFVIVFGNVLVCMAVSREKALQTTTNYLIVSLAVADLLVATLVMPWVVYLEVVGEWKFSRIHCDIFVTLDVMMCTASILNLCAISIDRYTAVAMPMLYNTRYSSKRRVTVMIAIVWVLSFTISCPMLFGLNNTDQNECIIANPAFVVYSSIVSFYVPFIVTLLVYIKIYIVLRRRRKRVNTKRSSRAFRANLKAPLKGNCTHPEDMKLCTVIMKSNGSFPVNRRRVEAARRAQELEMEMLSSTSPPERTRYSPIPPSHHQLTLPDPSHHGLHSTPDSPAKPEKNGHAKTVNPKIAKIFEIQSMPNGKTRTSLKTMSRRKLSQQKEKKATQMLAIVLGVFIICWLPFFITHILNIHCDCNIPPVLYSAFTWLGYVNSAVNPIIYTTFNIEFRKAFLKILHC
protocol_text: Binding affinity against D2 receptor in calf caudate nucleus
pIC50 (log units): -log10 of the concentration in mol/L.

Sure, the documented pIC50 for CCCN(CCCCN1C(=O)C2CCCC2C1=O)C1COc2cccc(OC)c2C1 (stereo in doubt; 9k) is 7.70

Entry under test: CCCN(CCCCN1C(=O)CC2(CCCC2)CC1=O)C1COc2ccccc2C1 (configuration not stated) . Its pIC50 was 8.40

Entry under test: COc1cccc2c1CC(NCCCCN1C(=O)c3ccccc3C1=O)CO2 (configuration not stated) . Its pIC50 was 5.30

molecule CCCN(CCC)C1COc2cccc(OC)c2C1 (stereo in doubt; 4) , pIC50 observed: 7.30

The measured pIC50 associated with CCCN(CCC)C1COc2cccc(OC)c2C1 (single isomer, unassigned; (+)) reads 6.85

CCCN(CCC)C1COc2ccccc2C1 (configuration not stated) has a reported pIC50 of 7.22
